Can you tell me IC50 for the items I'm about to list?
# System: human gastric adenocarcinoma (AGS) cells
# Assay procedure: IL-8 secretion by AGS cells into culture medium (ELISA)
# Assay type: cell-based
# Applied conditions: AGS cells without IL-1β stimulation, 6 hr, read-out: IC50, baseline IL-8 secretion

Enquiry: I would be grateful if you could share the reported IC50 for CC1(C)Cc2c(-c3ccccc3)c(-c3ccc(Cl)cc3)c(CC(=O)O)n2C1 .
Return: 750 nM

Enquiry: Entry under review: COC1(c2cc(F)cc(OCc3ccc4c(ccc(=O)n4C)c3)c2)CCOCC1 . Reported IC50?
Return: ~400 nM

====

# Target of assay: gastric H,K-ATPase (Sus scrofa, UniProt P19156)
# Construct: Reaction mixtures for assay of K^+-stimulated ATPase activity in pig gastric microsomal membranes contained 5 μg membrane protein
# Sequence (P19156 2-1034 limits assumed): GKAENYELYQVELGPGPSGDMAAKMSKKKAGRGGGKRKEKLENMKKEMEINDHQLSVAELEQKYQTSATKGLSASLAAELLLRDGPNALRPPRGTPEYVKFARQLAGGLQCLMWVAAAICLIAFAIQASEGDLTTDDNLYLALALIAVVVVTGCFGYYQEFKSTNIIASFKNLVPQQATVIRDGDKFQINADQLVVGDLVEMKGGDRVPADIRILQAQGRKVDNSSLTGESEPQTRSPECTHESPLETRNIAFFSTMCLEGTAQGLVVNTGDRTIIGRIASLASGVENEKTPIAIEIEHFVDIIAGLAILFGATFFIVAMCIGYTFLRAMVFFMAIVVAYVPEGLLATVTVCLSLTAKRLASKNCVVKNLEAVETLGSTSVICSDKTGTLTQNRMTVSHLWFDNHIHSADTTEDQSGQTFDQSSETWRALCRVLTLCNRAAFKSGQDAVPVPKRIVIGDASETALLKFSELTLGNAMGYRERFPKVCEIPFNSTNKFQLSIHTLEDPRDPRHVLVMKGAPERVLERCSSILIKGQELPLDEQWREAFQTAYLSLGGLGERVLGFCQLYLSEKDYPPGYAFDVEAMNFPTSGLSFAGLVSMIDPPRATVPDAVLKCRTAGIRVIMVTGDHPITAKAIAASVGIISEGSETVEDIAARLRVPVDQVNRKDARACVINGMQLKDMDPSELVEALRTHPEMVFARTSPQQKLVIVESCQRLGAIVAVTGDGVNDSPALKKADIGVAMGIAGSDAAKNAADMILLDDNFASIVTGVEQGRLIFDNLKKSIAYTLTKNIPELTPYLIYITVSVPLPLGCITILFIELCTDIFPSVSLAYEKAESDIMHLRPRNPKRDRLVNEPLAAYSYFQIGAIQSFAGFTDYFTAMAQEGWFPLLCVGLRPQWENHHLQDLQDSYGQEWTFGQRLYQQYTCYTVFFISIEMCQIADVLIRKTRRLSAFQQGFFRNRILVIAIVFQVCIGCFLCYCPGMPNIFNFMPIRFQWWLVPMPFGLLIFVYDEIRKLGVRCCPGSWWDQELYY
# Sequence (P18434 whole entry partner): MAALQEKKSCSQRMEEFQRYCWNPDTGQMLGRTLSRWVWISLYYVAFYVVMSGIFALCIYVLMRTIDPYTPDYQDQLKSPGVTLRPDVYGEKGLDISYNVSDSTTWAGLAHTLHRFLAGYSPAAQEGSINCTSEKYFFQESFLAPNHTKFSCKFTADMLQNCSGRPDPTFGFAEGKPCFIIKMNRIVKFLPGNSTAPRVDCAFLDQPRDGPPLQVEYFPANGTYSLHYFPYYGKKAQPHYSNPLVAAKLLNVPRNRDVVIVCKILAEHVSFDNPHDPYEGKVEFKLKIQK
# Assay procedure: K+-stimulated, SCH28080-sensitive H,K-ATPase activity of pig gastric microsomes (32Pi release from ATP)
# Applied conditions: pig gastric microsomes, pH 7.0, 20 minutes at 37° C.; read-out: half-maximal inhibitory concentration (IC50), H,K-ATPase activity
Measured attribute: pIC50
// scale note: pIC50 = -log10(conc_M); give the bare number

Enquiry: Entry CCCCC/C=C\C/C=C\C/C=C\C/C=C\CCCC(=O)O : reported pIC50 = ?
Return: 4.52

Enquiry: Could you tell me which pIC50 is on file for CC1(C)Cc2c(-c3ccccc3)c(-c3ccc(Cl)cc3)c(CC(=O)O)n2C1 ?
Return: 4.82

Enquiry: So what does the record say about pIC50 for CCCCC[C@H](O)/C=C/[C@H]1[C@H](O)CC(=O)[C@@H]1C/C=C\CCCC(=O)O [prostaglandin E2] ?
Return: 4.35
